Source: BigSolDB 2.1

- stated conditions: in acetonitrile, 283.15 K

smiles entry | solubility (mole fraction)
Nc1ccc([N+](=O)[O-])cc1[N+](=O)[O-] | 0.00893

###

- stated conditions: in n-propanol, 285.65 K

smiles entry | solubility (mole fraction)
Nc1ccc([N+](=O)[O-])cc1[N+](=O)[O-] | 0.00146

###

- stated conditions: in ethyl acetate, 308.15 K

smiles entry | solubility (mole fraction)
Nc1ccc([N+](=O)[O-])cc1[N+](=O)[O-] | 0.0301

###

- stated conditions: in n-butanol, 308.15 K

smiles entry | solubility (mole fraction)
Nc1ccc([N+](=O)[O-])cc1[N+](=O)[O-] | 0.00494

###

- stated conditions: in n-butanol, 290.65 K
quantity measured: solubility (mole fraction)

smiles entry | observed
Nc1ccc([N+](=O)[O-])cc1[N+](=O)[O-] | 0.00243

###

- stated conditions: in acetonitrile, 280.65 K

smiles entry | solubility (mole fraction)
Nc1ccc([N+](=O)[O-])cc1[N+](=O)[O-] | 0.00829

###

- stated conditions: in n-propanol, 313.15 K

smiles entry | solubility (mole fraction)
Nc1ccc([N+](=O)[O-])cc1[N+](=O)[O-] | 0.00413

###

- stated conditions: in n-propanol, 280.65 K

smiles entry | solubility (mole fraction)
Nc1ccc([N+](=O)[O-])cc1[N+](=O)[O-] | 0.00116

###

- stated conditions: in ethanol, 303.15 K

smiles entry | solubility (mole fraction)
Nc1ccc([N+](=O)[O-])cc1[N+](=O)[O-] | 0.00331

###

- stated conditions: in acetone, 285.65 K
quantity measured: solubility (mole fraction)

smiles entry | quantity measured | observed
Nc1ccc([N+](=O)[O-])cc1[N+](=O)[O-] | solubility (mole fraction) | 0.0355

###

- stated conditions: in acetone, 295.65 K

smiles entry | solubility (mole fraction)
Nc1ccc([N+](=O)[O-])cc1[N+](=O)[O-] | 0.0467

###

- stated conditions: in ethyl acetate, 285.65 K
quantity measured: solubility (mole fraction)

smiles entry | quantity measured | observed
Nc1ccc([N+](=O)[O-])cc1[N+](=O)[O-] | solubility (mole fraction) | 0.0151

###

- stated conditions: in isopropanol, 315.65 K

smiles entry | solubility (mole fraction)
Nc1ccc([N+](=O)[O-])cc1[N+](=O)[O-] | 0.00469

###

- stated conditions: in ethanol, 308.15 K

smiles entry | solubility (mole fraction)
Nc1ccc([N+](=O)[O-])cc1[N+](=O)[O-] | 0.00391

###

- stated conditions: in ethanol, 318.15 K
quantity measured: solubility (mole fraction)

smiles entry | quantity measured | observed
Nc1ccc([N+](=O)[O-])cc1[N+](=O)[O-] | solubility (mole fraction) | 0.00555

###

- stated conditions: in isopropanol, 280.65 K
quantity measured: solubility (mole fraction)

smiles entry | quantity measured | observed
Nc1ccc([N+](=O)[O-])cc1[N+](=O)[O-] | solubility (mole fraction) | 0.00097

###

- stated conditions: in toluene, 303.15 K
quantity measured: solubility (mole fraction)

smiles entry | quantity measured | observed
Nc1ccc([N+](=O)[O-])cc1[N+](=O)[O-] | solubility (mole fraction) | 0.00114

###

- stated conditions: in ethanol, 293.15 K
quantity measured: solubility (mole fraction)

smiles entry | observed
Nc1ccc([N+](=O)[O-])cc1[N+](=O)[O-] | 0.00232
